Target: JAK2 (Homo sapiens (Human), UniProt O60674)
Sequence (O60674 808-1132): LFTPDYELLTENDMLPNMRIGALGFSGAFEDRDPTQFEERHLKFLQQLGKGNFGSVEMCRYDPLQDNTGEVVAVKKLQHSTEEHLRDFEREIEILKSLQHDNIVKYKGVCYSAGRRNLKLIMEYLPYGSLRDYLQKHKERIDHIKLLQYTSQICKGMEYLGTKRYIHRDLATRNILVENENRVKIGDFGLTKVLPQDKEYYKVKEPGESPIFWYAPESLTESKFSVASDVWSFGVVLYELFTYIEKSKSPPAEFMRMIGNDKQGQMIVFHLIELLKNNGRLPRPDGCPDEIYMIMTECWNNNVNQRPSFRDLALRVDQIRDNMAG
Assay: Inhibition of enzymatic JAK2 kinase activity (TR-FRET)
Assay type: biochemical
Conditions: read-out: IC50 JAK
Source text: The objective of this assay was to screen compounds in a Time-resolved fluorescence resonance energy transfer (TR-FRET) Enzymatic assay method for their potential to inhibit JAK2 (Janus kinase) activity. TR-FRET assays are homogeneous proximity assays where Eu-labeled antiphosphotyrosine antibody binds to the phosphorylated substrates labeled with Ulight fluorescence acceptor. […]
pIC50: −log10 of the molar value. Structures can show the parent of a compound that is named as a salt.

| molecule | pIC50 |
| --- | --- |
| O=c1[nH]ncc2nc(-c3ccccc3)nc(Nc3ccc(CN4CCC5(CC4)COC5)cc3)c12 | > 7.00 |
| O=c1[nH]ncc2nc(N3CCCCCC3)nc(Nc3ccc(N4CCC(O)CC4)nc3)c12 | > 7.30 |
| COc1ccccc1-c1nc(Nc2ccc(CN3CCNCC3)cc2)c2c(=O)[nH]ncc2n1 [Example 36, hydrochloride] | > 7.00 |
| O=c1[nH]ncc2nc(N3CCCNCC3)nc(Nc3ccc(CN4CCNCC4)cc3)c12 [Example 59, dihydrochloride] | < 7.00 |
| O=c1[nH]ncc2nc(-c3ccccc3)nc(Nc3ccc(N4CCOCC4)cc3)c12 | > 7.30 |
| CC(C)(CO)Oc1ccc(Nc2nc(N3CCCCCC3)nc3cn[nH]c(=O)c23)cc1 | > 8.00 |
| O=c1[nH]ncc2nc(N3CCCCCC3)nc(Nc3ccc(N4CCNCC4)nc3)c12 | > 8.00 |
| O=c1[nH]ncc2nc(N3CCCCCC3)nc(Nc3ccc(OCCN4CCOCC4)cc3)c12 | > 7.30 |
| NC(=O)CC1CCN(c2ccc(Nc3nc(N4CCCCCC4)nc4cn[nH]c(=O)c34)cc2)CC1 | > 8.00 |
| CCN1CCN(C(=O)COc2ccc(Nc3nc(N4CCC(CC#N)CC4)nc4cn[nH]c(=O)c34)cc2)CC1 | > 7.30 |
| N#CCC1CCN(c2nc(Nc3ccc(CCO)cc3)c3c(=O)[nH]ncc3n2)CC1 | > 7.30 |
| COCCOc1ccc(Nc2nc(N3CCCCCC3)nc3cn[nH]c(=O)c23)cc1 | > 7.30 |
| CN(c1nc(Nc2ccc(N3CCC(CC(=O)O)CC3)cc2)c2c(=O)[nH]ncc2n1)C1CCCCC1 | > 8.00 |
| O=C1CN(c2ccc(Nc3nc(N4CCCCCC4)nc4cn[nH]c(=O)c34)cc2)CCN1 | > 8.00 |
| N#CCC1CCN(c2nc(Nc3ccc(CCCF)cc3)c3c(=O)[nH]ncc3n2)CC1 | > 7.30 |
| O=c1[nH]ncc2nc(N3CCCCCC3)nc(Nc3ccc(N4CCNCC4)cc3)c12 | > 8.00 |

---

// reported IC50 for each item listed
Target: JAK2 (Homo sapiens (Human), UniProt O60674)
Assay: Inhibition of enzymatic JAK2 kinase activity (TR-FRET)
Format: biochemical
Details: read-out: IC50 JAK
Structures can show the parent of a compound that is named as a salt.

| molecule | assay.system | IC50 |
| --- | --- | --- |
| N#CCC1CCN(c2nc(Nc3ccc(CCC(=O)O)cc3)c3c(=O)[nH]ncc3n2)CC1 [Example 305] | JAK2 (Homo sapiens (Human), UniProt O60674) | < 50 nM |
| O=c1[nH]ncc2nc(N3CCCCCC3)nc(Nc3ccc(N4CCC(O)CC4)cc3)c12 [Example 186] | JAK2 (Homo sapiens (Human), UniProt O60674) | < 100 nM |
| O=c1[nH]ncc2nc(N3CCCC3)nc(Nc3ccc(CN4CCNCC4)cc3)c12 [Example 48, hydrochloride] | JAK2 (Homo sapiens (Human), UniProt O60674) | < 100 nM |
| CN1CCN(Cc2ccc(Nc3nc(N4CCCCCC4)nc4cn[nH]c(=O)c34)cc2)CC1 [Example 85] | JAK2 (Homo sapiens (Human), UniProt O60674) | < 10 nM |
| CCN1CCN(Cc2ccc(Nc3nc(-c4ccccc4)nc4cn[nH]c(=O)c34)cc2)CC1 [Example 6] | JAK2 (Homo sapiens (Human), UniProt O60674) | < 50 nM |
| CC(C)(O)C(=O)N1CCN(Cc2ccc(Nc3nc(N4CCCCCC4)nc4cn[nH]c(=O)c34)cc2)CC1 [Example 84] | JAK2 (Homo sapiens (Human), UniProt O60674) | < 10 nM |
| N#CCC1CCN(c2nc(Nc3ccc(N4CCN(CCC(=O)O)CC4)cc3)c3c(=O)[nH]ncc3n2)CC1 [Example 220] | JAK2 (Homo sapiens (Human), UniProt O60674) | < 10 nM |
| O=c1[nH]ncc2nc(-c3ccccc3)nc(Nc3ccc(N4CCNCC4)cc3)c12 [Example 8] | JAK2 (Homo sapiens (Human), UniProt O60674) | < 10 nM |
| NC(=O)CC1CCN(c2ccc(Nc3nc(-c4ccccc4)nc4cn[nH]c(=O)c34)cn2)CC1 [Example 102] | JAK2 (Homo sapiens (Human), UniProt O60674) | > 100 nM |
| O=C(O)C1CC12CCN(c1ccc(Nc3nc(N4CCCCCCC4)nc4cn[nH]c(=O)c34)cc1)CC2 (stereo not shown) [Example 141] | JAK2 (Homo sapiens (Human), UniProt O60674) | < 10 nM |
| N#CCC1CCN(c2nc(Nc3ccc(N4CCC(CCO)CC4)cc3)c3c(=O)[nH]ncc3n2)CC1 [Example 196] | JAK2 (Homo sapiens (Human), UniProt O60674) | < 10 nM |
| O=c1[nH]ncc2nc(N3CCCCC3)nc(Nc3ccc(OCCN4CCNCC4)cc3)c12 [Example 153] | JAK2 (Homo sapiens (Human), UniProt O60674) | < 100 nM |
| O=c1[nH]ncc2nc(N3CCCCC3)nc(Nc3ccc(OCCN4CCNCC4)nc3)c12 [Example 181] | JAK2 (Homo sapiens (Human), UniProt O60674) | > 100 nM |
| O=c1[nH]ncc2nc(N3CCCCCC3)nc(Nc3ccc(N4CCC(CCO)CC4)nc3)c12 [Example 236] | JAK2 (Homo sapiens (Human), UniProt O60674) | < 50 nM |
| O=C(O)CN1CCN(CCOc2ccc(Nc3nc(N4CCCCCC4)nc4cn[nH]c(=O)c34)cc2)CC1 [Example 106] | JAK2 (Homo sapiens (Human), UniProt O60674) | < 50 nM |
| CN1CCN(C(=O)COc2ccc(Nc3nc(N4CCC(CC#N)CC4)nc4cn[nH]c(=O)c34)cc2)CC1 [Example 271] | JAK2 (Homo sapiens (Human), UniProt O60674) | < 50 nM |
